These measurements were taken from ChEMBL document CHEMBL1129955.

- target_system: Glutamate receptor ionotropic, NMDA 1 (Rattus norvegicus, UniProt P35439)
- assay_details: Potency for the N-methyl-D-aspartate glutamate receptor 1 glycine site by displacement of [3H]5,7-dichlorokynurenic acid (DCKA) binding in rat brain cortical membranes.
Catalogue of molecules with associated pIC50
Scale: negative log10 of molar concentration, which is what pIC50 denotes.

[[record]]
smiles_code = "O=c1[nH]c2cc3ccccc3cc2[nH]c1=O"
assay_value = 4.80


## Input Requested field: pIC50. Item: Cc1c(F)cc2nc(O)c(O)nc2c1[N+](=O)[O-]
## Output 7.02

## Input Name the recorded pIC50 for N#Cc1cc([N+](=O)[O-])c2[nH]c(=O)c(=O)[nH]c2c1 .
## Output 5.55

## Input Requested read-out: pIC50. Entry: COc1cc2nc(O)c(O)nc2cc1Br
## Output 6.00
